The reader will find reported HC50 at 1 h values listed item by item below.
- METHOD NOTES: Hemolytic activity in human type RBC after 1 hr
- Format: ADME, cell-based, Erythrocyte
- EXPERIMENTAL SETUP: red blood cells (erythrocytes), read-out: LC50

Below: 5 substances and their reported HC50 at 1 h.
[[record]]
substance = "H-GILSSLWKKLKKWIAK-NH2"
readout_value = "57 µM"

[[record]]
substance = "H-GILSSLLKKLKKIIAK-NH2"
readout_value = "284 µM"

[[record]]
substance = "H-GIMSSLMKKLAAHIAK-NH2"
readout_value = "> 400 µM"

[[record]]
substance = "H-GIMSSLMKKLKKIIKK-NH2"
readout_value = "> 400 µM"

[[record]]
substance = "H-GILKSLLKKLKKIIAK-NH2"
readout_value = "> 400 µM"


The reported value for H-GIMSSLMKKLKKHIAK-NH2 in terms of HC50 at 1 h is > 400 µM

The reported value for H-GKLSSLWKKLKKIIAK-NH2 in terms of HC50 at 1 h is > 400 µM

The reported value for H-GILSSLLKKLKKWIAK-NH2 in terms of HC50 at 1 h is 115 µM

* * *

The reader will find reported MIC values listed item by item below.
- Test system: Escherichia coli
- METHOD NOTES: Antimicrobial activity against Escherichia coli assessed as reduction in bacterial growth after 20 hrs by […]
- Type: functional
Non-standard residues stand in square brackets, D forms with d. Residues, ends and D or L forms follow the SMILES beside them. ξ: configuration not given here. ξNle = CCCCC(N)C(=O)O
Kindly write the number and append the unit.

Below: 5 compounds and their reported MIC.
[[record]]
compound = "CCCCC(NC(=O)[C@H](CC(C)C)NC(=O)[C@H](CO)NC(=O)[C@H](CO)NC(=O)C(CCCC)NC(=O)[C@@H](NC(=O)CN)[C@@H](C)CC)C(=O)N[C@@H](CCCCN)C(=O)N[C@@H](CCCCN)C(=O)N[C@@H](CC(C)C)C(=O)N[C@@H](CCCCN)C(=O)N[C@@H](CCCCN)C(=O)N[C@H](C(=O)N[C@H](C(=O)N[C@@H](C)C(N)=O)[C@@H](C)CC)[C@@H](C)CC (some centres not stated) (H-GI[ξNle]SSL[ξNle]KKLKKIIA-NH2)"
readout_value = "10 µM"

[[record]]
compound = "CN(C)[C@@H]1C(O)=C(C(N)=O)C(=O)[C@@]2(O)C(O)=C3C(=O)c4c(O)cccc4[C@@](C)(O)[C@H]3C[C@@H]12"
readout_value = "2.7 µM"

[[record]]
compound = "CC1(C)S[C@@H]2[C@H](NC(=O)[C@H](N)c3ccc(O)cc3)C(=O)N2[C@H]1C(=O)O"
readout_value = "2.7 µM"

[[record]]
compound = "CO[C@H]1/C=C/O[C@@]2(C)Oc3c(C)c(O)c4c(O)c(c(/C=N/N5CCN(C)CC5)c(O)c4c3C2=O)NC(=O)/C(C)=C\\C=C\\[C@H](C)[C@H](O)[C@@H](C)[C@@H](O)[C@@H](C)[C@H](OC(C)=O)[C@@H]1C"
readout_value = "10 µM"

[[record]]
compound = "CC[C@@H](C)[C@@H](NC(=O)CN)C(=O)N[C@H](CCSC)C(=O)N[C@H](CO)C(=O)N[C@H](CO)C(=O)N[C@H](CC(C)C)C(=O)N[C@H](CCSC)C(=O)N[C@H](CCCCN)C(=O)N[C@H](CCCCN)C(=O)N[C@H](CC(C)C)C(=O)N[C@H](CCCCN)C(=O)N[C@H](CCCCN)C(=O)N[C@@H](C(=O)N[C@@H](C(=O)N[C@H](C)C(=O)N[C@H](CCCCN)C(N)=O)[C@H](C)CC)[C@H](C)CC (H-G[dI][dM][dS][dS][dL][dM][dK][dK][dL][dK][dK][dI][dI][dA][dK]-NH2)"
readout_value = "6.3 µM"


Assay Escherichia coli, sample CC[C@@H](C)[C@@H](NC(=O)CN)C(=O)N[C@H](CC(C)C)C(=O)N[C@H](CO)C(=O)N[C@H](CO)C(=O)N[C@H](CC(C)C)C(=O)N[C@H](Cc1c[nH]c2ccccc12)C(=O)N[C@H](CCCCN)C(=O)N[C@H](CCCCN)C(=O)N[C@H](CC(C)C)C(=O)N[C@H](CCCCN)C(=O)N[C@H](CCCCN)C(=O)N[C@@H](C(=O)N[C@@H](C(=O)N[C@H](C)C(=O)N[C@H](CCCCN)C(N)=O)[C@H](C)CC)[C@H](C)CC (H-G[dI][dL][dS][dS][dL][dW][dK][dK][dL][dK][dK][dI][dI][dA][dK]-NH2) , MIC read: 5 µM

Assay Escherichia coli, sample CC[C@@H](C)[C@@H](NC(=O)CN)C(=O)N[C@H](CC(C)C)C(=O)N[C@H](CO)C(=O)N[C@H](CO)C(=O)N[C@H](CC(C)C)C(=O)N[C@H](CC(C)C)C(=O)N[C@H](CCCCN)C(=O)N[C@H](CCCCN)C(=O)N[C@H](CC(C)C)C(=O)N[C@H](CCCCN)C(=O)N[C@H](CCCCN)C(=O)N[C@@H](C(=O)N[C@@H](C(=O)N[C@H](C)C(=O)N[C@H](CCCCN)C(N)=O)[C@H](C)CC)[C@H](C)CC (H-G[dI][dL][dS][dS][dL][dL][dK][dK][dL][dK][dK][dI][dI][dA][dK]-NH2) , MIC read: 4.5 µM
